Biological target: human TNF (human, UniProt P01375 77-233)
Sequence (P01375 77-233 limits assumed): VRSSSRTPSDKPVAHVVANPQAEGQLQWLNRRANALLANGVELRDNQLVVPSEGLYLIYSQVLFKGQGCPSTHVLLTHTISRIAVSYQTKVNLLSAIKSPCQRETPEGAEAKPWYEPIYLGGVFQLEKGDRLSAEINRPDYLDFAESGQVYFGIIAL
Assay: SPR, scFv
Measurement Name: koff (s⁻¹)
Numbers only, in s⁻¹.

As a guide, the following entries are already answered.
| Binder | Unit Abbreviation | koff |
| --- | --- | --- |
| Vκ1/VH4 consensus λ-capped (TNF-specific scFv) (scFv, scFv; also called capped Vκ1/VH4 consensus molecule) scFv: DIQMTQSPSSLSASVGDRVTITCQASQSISDWLAWYQQKPGKAPKLLIYGASRLASGVPSRFSGSGSGTDFTLTISSLQPEDFATYYCQQGWSDSYVDNLFGGGTKLTVLGGGGGSGGGGSGGGGSGGGGSQVQLQESGPGLVKPSETLSLTCTVSGFSLSSGAMSWIRQPPGKGLEWIGVIISSGATYYASWAKGRVTISVDTSKNQFSLKLSSVTAADTAVYYCARGGPDDSNSMGTFDPWGQGTLVTVSS | s⁻¹ | 3.36e-05 |
| Vκ3/VH4 consensus λ-capped (TNF-specific scFv) (scFv, scFv) scFv: DIVLTQSPATLSLSPGERATLSCQASQSISDWLAWYQQKPGQAPRLLIYGASRLASGVPARFSGSGSGTDFTLTISSLEPEDFAVYYCQQGWSDSYVDNLFGGGTKLTVLGGGGGSGGGGSGGGGSGGGGSQVQLQESGPGLVKPSETLSLTCTVSGFSLSSGAMSWIRQPPGKGLEWIGVIISSGATYYASWAKGRVTISVDTSKNQFSLKLSSVTAADTAVYYCARGGPDDSNSMGTFDPWGQGTLVTVSS | s⁻¹ | 5.25e-05 |
| Vκ1/VH4 consensus (T24K, T84S) λ-capped (TNF-specific scFv) (scFv, scFv; also called Vκ1/VH4mut; mutant variant of Vκ1/VH4) scFv: DIQMTQSPSSLSASVGDRVTITCQASQSISDWLAWYQQKPGKAPKLLIYGASRLASGVPSRFSGSGSGTDFTLTISSLQPEDFATYYCQQGWSDSYVDNLFGGGTKLTVLGGGGGSGGGGSGGGGSGGGGSQVQLQESGPGLVKPSETLSLTCKVSGFSLSSGAMSWIRQPPGKGLEWIGVIISSGATYYASWAKGRVTISVDSSKNQFSLKLSSVTAADTAVYYCARGGPDDSNSMGTFDPWGQGTLVTVSS | s⁻¹ | 3.28e-05 |

Now for another entry.
Query: Determine its reported koff: Vκ3/VH4 consensus (T24K, T84S) λ-capped (TNF-specific scFv) (scFv, scFv; also called Vκ3/VH4mut) scFv: DIVLTQSPATLSLSPGERATLSCQASQSISDWLAWYQQKPGQAPRLLIYGASRLASGVPARFSGSGSGTDFTLTISSLEPEDFAVYYCQQGWSDSYVDNLFGGGTKLTVLGGGGGSGGGGSGGGGSGGGGSQVQLQESGPGLVKPSETLSLTCKVSGFSLSSGAMSWIRQPPGKGLEWIGVIISSGATYYASWAKGRVTISVDSSKNQFSLKLSSVTAADTAVYYCARGGPDDSNSMGTFDPWGQGTLVTVSS
Reply: 3.09e-05
